B1: glmS ribozyme (parent)
chain: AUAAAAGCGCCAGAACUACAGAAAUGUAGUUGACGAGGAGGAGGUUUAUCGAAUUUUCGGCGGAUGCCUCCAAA

# Variants of: B1
# experimental_details: self-cleavage kobs at 640 uM GlcN6P; higher = faster cleavage; RNA array
# test_conditions: with glucosamine-6-phosphate
Fewer inactive variants are shown than the library holds.
Classify as follows. Reported self-cleavage kobs at 640 uM GlcN6P greater than or equal to 0.0001 s⁻¹: condition met. Reported self-cleavage kobs at 640 uM GlcN6P below: condition not met.

INSERT INTO assay_data (variant_spec, label) VALUES
  ('G9U A48U C67G', 'condition not met'),
  ('G13C U45C', 'condition not met'),
  ('G13U G35U C50U G66C', 'condition not met'),
  ('G35C U49G', 'condition not met'),
  ('U46G A53U G63C C67G', 'condition not met'),
  ('A15C U49C', 'condition not met'),
  ('A14G C16G', 'condition met'),
  ('A15G C67A C71U', 'condition met'),
  ('C16G U30A U55G', 'condition met'),
  ('G13C G29A', 'condition not met'),
  ('A53U U69G', 'condition not met'),
  ('A6U C11G A14C G41U', 'condition not met'),
  ('A14U C58A', 'condition met'),
  ('G7U C16A G37U U45G', 'condition not met'),
  ('A42C C50U', 'condition not met'),
  ('A12G G32U C70U', 'condition met'),
  ('C58A C70A', 'condition not met'),
  ('U49G A53G', 'condition met'),
  ('A6G U30G G59U', 'condition not met'),
  ('U45G U56G', 'condition met'),
  ('G9C A33U A36G U45A A48C', 'condition not met'),
  ('A42G A48C', 'condition not met'),
  ('G29U U55C', 'condition met'),
  ('U30G U54A', 'condition met'),
  ('G9A C58G', 'condition not met'),
  ('G40A C67G', 'condition not met'),
  ('C11U C67A', 'condition met'),
  ('A36C U47G U69G', 'condition not met'),
  ('C8U G60U C68U', 'condition not met'),
  ('A42U U46G A48C', 'condition not met'),
  ('U31G U45C A53G', 'condition met'),
  ('A52U', 'condition not met'),
  ('A42C G43C C70U', 'condition not met'),
  ('G13A C50U G62A', 'condition not met'),
  ('C34A C58A', 'condition not met'),
  ('C8G C61U C68U', 'condition not met'),
  ('A15C', 'condition met'),
  ('G9U U56G U65C C67G', 'condition not met'),
  ('A12C U45A A64U', 'condition not met'),
  ('G35C C67G C71G', 'condition not met'),
  ('C34A G41C', 'condition not met'),
  ('C11U A15C U31C', 'condition not met'),
  ('C8A A15C', 'condition not met'),
  ('U31G G41U U47G G62U A64U C70G', 'condition not met'),
  ('G32A', 'condition met'),
  ('A15U U55G', 'condition met');
